run.description: Human HepG2 cell viability assay in 384 well format
Assay type: toxicity, cell-based
Parameters: dose 125 nL, time 70.5 hour; concentration not given beside the values
particulars: HepG2 cells, read-out: Inhibition
For each of the molecules below, state its cytotoxicity at 70.5 h.
Express the result in % but write the number alone.

Note to self: cytotoxicity at 70.5 h recorded for Cc1nc2ccccc2c(=O)n1CCC(=O)N1CCCC1 was -6.75

Note to self: cytotoxicity at 70.5 h recorded for CNC(=O)Cc1noc(Cc2ccc3c(c2)CCCC3)n1 was 12.5

Note to self: cytotoxicity at 70.5 h recorded for Cc1nn(-c2ccccc2)c(C)c1CN1CCNCC1 was 27.3

Note to self: cytotoxicity at 70.5 h recorded for CCN(CC)C(=O)C1CCC(=O)N(CCc2cccc(F)c2)C1 (stereo not drawn) was 19.7

Note to self: cytotoxicity at 70.5 h recorded for CCc1nc(CC(=O)N2CCCC2Cn2cccn2)cs1 (stereo not drawn) was 2.11

Note to self: cytotoxicity at 70.5 h recorded for N[C@H]1CN(C(=O)CCCc2ccc(F)cc2)C[C@@H]1C1CC1 was -6.92

Note to self: cytotoxicity at 70.5 h recorded for Cc1nc2c(c(C)c1CC(=O)NC(C)c1ccccc1)c(=O)[nH]n2C (stereo not drawn) was -2.23

Note to self: cytotoxicity at 70.5 h recorded for CC1CN(C(=O)c2nccnc2N)c2ccc(F)cc2O1 (stereo not drawn) was 1.2

Note to self: cytotoxicity at 70.5 h recorded for c1ccc(Cn2cc3c(n2)C(CNCc2ccco2)OCC3)nc1 (stereo not drawn) was -0.917

Note to self: cytotoxicity at 70.5 h recorded for O=C(c1cc(-n2cccn2)ccn1)N(CC(F)(F)F)C1CCCC1 was -2.14

Note to self: cytotoxicity at 70.5 h recorded for CCN(c1ccsc1C(=O)N1CCC(C)CC1)S(=O)(=O)c1ccccc1 was -11.9

Note to self: cytotoxicity at 70.5 h recorded for CCC1CCCN(CC(=O)Nc2oc(C)c3c(C)n[nH]c(=O)c23)C1 (stereo not drawn) was -9.67

Note to self: cytotoxicity at 70.5 h recorded for Cc1cccc(CN2C(=O)C[C@H]3[C@@H]2CCN3Cc2ccccn2)n1 was 23.7

Note to self: cytotoxicity at 70.5 h recorded for OCc1ccc(Cl)c(NCc2cccnc2)c1 was 19.4

Note to self: cytotoxicity at 70.5 h recorded for Cc1ccc(CNC2CCN(CCc3ccncc3)CC2)cc1C was 1.32

Note to self: cytotoxicity at 70.5 h recorded for CCC(CC)C(CNC(=O)Nc1cc(C)nn1C)N1CCOCC1 (stereo not drawn) was 36.9

Note to self: cytotoxicity at 70.5 h recorded for COc1cc(C(=O)N(Cc2cnn(C)c2)C(C)C)ccc1C was -1.26

Note to self: cytotoxicity at 70.5 h recorded for O=C1NCCN(Cc2cccnc2)C1CC(=O)N1CCc2n[nH]cc2C1 (stereo not drawn) was -0.172

Note to self: cytotoxicity at 70.5 h recorded for CC(C)Cc1noc(-c2ccc(NCc3noc(C(C)C)n3)nc2)n1 was -5.16

Note to self: cytotoxicity at 70.5 h recorded for Cc1nonc1N1CCN(Cc2nc(CC3CC3)no2)CC1 was -2.56

Note to self: cytotoxicity at 70.5 h recorded for Cn1cc(C2CCCN2Cc2csc(Cc3ccccc3)n2)cn1 (stereo not drawn) was -8.68

Note to self: cytotoxicity at 70.5 h recorded for Cc1nc(CNC(=O)[C@@H]2CCCN2C(=O)OC(C)(C)C)cs1 was -7.16

Note to self: cytotoxicity at 70.5 h recorded for CC(C)(C)Oc1ccncc1NCc1cscn1 was -3.05

Note to self: cytotoxicity at 70.5 h recorded for Cc1nc(NC(C)C)nc2c1CN(Cc1cccs1)CC2 was 22.9

Note to self: cytotoxicity at 70.5 h recorded for CCN1CCCC(O)(CNCc2ccccc2F)C1 (stereo not drawn) was 12.4

Note to self: cytotoxicity at 70.5 h recorded for O=C(c1cccc(O)c1)N1CCN(Cc2nnc(C3CCC3)o2)CC1 was 23.6

Note to self: cytotoxicity at 70.5 h recorded for N#CC1COCCN1C(=O)c1ccc2[nH]cnc2c1 (stereo not drawn) was -1.24

Note to self: cytotoxicity at 70.5 h recorded for CC(C)N1CCC(C(=O)N(C)CC(=O)c2ccc(O)cc2)CC1 was -17.5

Note to self: cytotoxicity at 70.5 h recorded for Cc1cccnc1CN(C)C(C(=O)O)c1ccc(C(C)(C)C#N)cc1 (stereo not drawn) was -0.799

Note to self: cytotoxicity at 70.5 h recorded for Cc1cnn(CC2CCCN2CC(=O)Nc2cc(C(C)C)no2)c1 (stereo not drawn) was -7.84

Note to self: cytotoxicity at 70.5 h recorded for CC1CCN(C(=O)c2cn(-c3cc(N4CCSCC4)ncn3)cn2)CC1 was 3.74

Note to self: cytotoxicity at 70.5 h recorded for CNc1ncc(CN(C)C(=O)c2cccc(Cn3cccn3)c2)cn1 was -6.97

Note to self: cytotoxicity at 70.5 h recorded for Cc1cnn(CC2CN(CC(=O)NCCc3cccs3)CCO2)c1 (stereo not drawn) was -2.04

Note to self: cytotoxicity at 70.5 h recorded for Cc1cc(NC(=O)Cc2ccc3c(c2)OCO3)n(C)n1 was -0.417

Note to self: cytotoxicity at 70.5 h recorded for O=C(c1ccc(F)cc1)N1C[C@@H]2OCCN(c3ncccn3)[C@@H]2C1 was 4.02

Note to self: cytotoxicity at 70.5 h recorded for O=C(NC1CC1)C1=CC2(CCN(CCO)CC2)c2ccccc21 was -11

Note to self: cytotoxicity at 70.5 h recorded for CN(Cc1ccccc1)C(=O)CN1CCCC(Cn2cncn2)C1 (stereo not drawn) was -7.31

Note to self: cytotoxicity at 70.5 h recorded for CCCc1nnc(C(=O)N(C)Cc2ccc(OC)cc2)o1 was -2.69

Note to self: cytotoxicity at 70.5 h recorded for COC(=O)CNC(=O)c1ccn(-c2ccc(Cl)c(Cl)c2)n1 was -2.3

Note to self: cytotoxicity at 70.5 h recorded for Cc1ccc(C(=O)N2C[C@@H]3CN(S(C)(=O)=O)CCO[C@@H]3C2)s1 was 0.775

Note to self: cytotoxicity at 70.5 h recorded for CCn1nc(C(=O)N2CCCC(n3cncn3)C2)ccc1=O (stereo not drawn) was -14.8

Note to self: cytotoxicity at 70.5 h recorded for Cc1cc(S(=O)(=O)N2C[C@H](C3CC3)[C@@H](N)C2)c(C)s1 was -6.03

Note to self: cytotoxicity at 70.5 h recorded for CSCC(=O)N1CCCCC1Cn1cc(C)cn1 (stereo not drawn) was -1.03

Note to self: cytotoxicity at 70.5 h recorded for Cc1ccc2nc(C)cc(NCCNS(=O)(=O)c3cccnc3)c2c1 was -2.02

Note to self: cytotoxicity at 70.5 h recorded for COc1ccc(-n2ccc(CNCc3cccc(OC)c3)n2)cc1 was 23.7

Note to self: cytotoxicity at 70.5 h recorded for Cn1cc(S(=O)(=O)NC(=O)C2(c3ccccc3)CCC2)cn1 was -4.68

Note to self: cytotoxicity at 70.5 h recorded for Cc1nc(O)cc(CN2C[C@H](NC(=O)C3CCC3)[C@@H](C3CC3)C2)n1 was -3.55

Note to self: cytotoxicity at 70.5 h recorded for COc1ccccc1-c1csc(-c2cccc(C(=O)O)c2)n1 was -4.2

FYI, the data here is from ChEMBL document CHEMBL3507680.
